Cathepsin L (Rattus norvegicus, UniProt P07154) data, read-out pIC50
Sequence (P07154 114-334): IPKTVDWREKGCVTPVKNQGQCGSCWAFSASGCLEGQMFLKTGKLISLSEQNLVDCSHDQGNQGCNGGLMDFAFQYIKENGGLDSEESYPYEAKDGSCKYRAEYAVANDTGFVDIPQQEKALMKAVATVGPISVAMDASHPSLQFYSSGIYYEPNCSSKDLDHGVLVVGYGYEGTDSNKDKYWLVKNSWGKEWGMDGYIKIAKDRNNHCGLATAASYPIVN
# reply with the number alone; pIC50 is -log10 of concentration in mol/L

**Query** Requested field: pIC50. Item: `O=C(N[C@H](Cc1ccccc1)C(=O)N[C@@H]1C(=O)N2CCS(=O)(=O)[C@@H]12)OCc1ccccc1`
**Result** 7.36

**Query** Same question for `O=C(CCc1ccccc1)N[C@@H](CC1CCCCC1)C(=O)N[C@@H]1C(=O)N2CCS(=O)(=O)[C@@H]12` please.
**Result** 9.15

**Query** Follow-up item: `COC(=O)[C@@H]1N2C(=O)[C@@H](NC(=O)[C@H](Cc3ccccc3)NC(=O)OCc3ccccc3)[C@H]2S(=O)(=O)C1(C)C`
**Result** 5.76

**Query** Similarly, `O=C(N[C@@H](Cc1cccnc1)C(=O)N[C@@H]1C(=O)N2CCS(=O)(=O)[C@@H]12)OCc1ccccc1` ?
**Result** 8.77

**Query** What do you get for `O=C(N[C@@H](Cc1cccnc1)C(=O)N[C@@H]1C(=O)N2CCS[C@@H]12)OCc1ccccc1` ?
**Result** 4.93

**Query** Would you kindly repeat that for `O=C(N[C@@H](Cc1ccccc1)C(=O)N[C@@H]1C(=O)N2CCS(=O)(=O)[C@@H]12)OCc1ccccc1` ?
**Result** 8.85
